Provide the reported pIC50 of each item.
target: Acetylcholinesterase (Homo sapiens, UniProt P22303); assay: Inhibition of AChE in human erythrocytes using acetylthiocholineiodide as substrate pre-incubated for 10 mins followed by substrate addition and measured for 6 mins by DTNB reagent based Ellman's method; format: cell-based, Erythrocyte
Sequence (P22303 whole entry): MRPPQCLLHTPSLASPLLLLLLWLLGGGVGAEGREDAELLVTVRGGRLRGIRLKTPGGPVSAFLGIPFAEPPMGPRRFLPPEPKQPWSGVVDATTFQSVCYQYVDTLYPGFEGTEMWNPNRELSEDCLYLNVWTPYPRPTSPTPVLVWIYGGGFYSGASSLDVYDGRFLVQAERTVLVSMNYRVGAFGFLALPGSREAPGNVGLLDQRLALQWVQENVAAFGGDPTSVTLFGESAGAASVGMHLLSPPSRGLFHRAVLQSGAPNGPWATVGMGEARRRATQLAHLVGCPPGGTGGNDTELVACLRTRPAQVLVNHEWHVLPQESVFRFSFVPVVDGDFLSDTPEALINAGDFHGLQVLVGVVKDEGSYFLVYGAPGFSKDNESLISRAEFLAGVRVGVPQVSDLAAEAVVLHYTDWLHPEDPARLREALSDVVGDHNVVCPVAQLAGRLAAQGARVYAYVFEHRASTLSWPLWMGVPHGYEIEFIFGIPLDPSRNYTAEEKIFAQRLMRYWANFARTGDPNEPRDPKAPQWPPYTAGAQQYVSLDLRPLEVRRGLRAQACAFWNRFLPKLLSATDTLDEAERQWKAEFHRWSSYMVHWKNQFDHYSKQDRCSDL
Numbers only, as −log10 of the molar value.

The cases that follow already have their pIC50 on record.
GET /value?item= CCOC(=O)c1c(C)nc(N2CCN(S(=O)(=O)c3ccc(NC(C)=O)c(OC)c3)CC2)nc1-c1ccc(OC)c(OC)c1 &field=pIC50 returns 7.10

response.value for CCOC(=O)c1c(C)nc(N2CCN(S(=O)(=O)c3ccc(N)c(Cl)c3)CC2)nc1-c1ccc(OC)c(OC)c1 (field: pIC50) = 7.29

Memo: CCOC(=O)c1c(C)nc(N2CCN(S(=O)(=O)c3ccc(N)c(F)c3)CC2)nc1-c1ccc(OC)cc1 , reported pIC50: 7.00

Lab note: CCOC(=O)c1c(C)nc(N2CCN(S(=O)(=O)c3ccc(N)cc3)CC2)nc1-c1ccc(OC)cc1 gave pIC50 of 7.14

Now for the compound whose pIC50 we want.
According to the records, this compound CCOC(=O)c1c(C)nc(N2CCN(S(=O)(=O)c3ccc(NC(C)=O)c(Cl)c3)CC2)nc1-c1ccc(OC)cc1 displays pIC50 of 7.06
